Test system: S. aureus
test protocol: Minimum inhibitory concentrations (MICs) for S. aureus of exemplary compounds (Table 2)
Type: cell-based
measurement context: Staphylococcus aureus, minimum inhibitory concentrations for S. aureus; read-out: MICs
MIC by entry:
Report as a plain number; the unit µg/mL is understood.

>>> meas_value("CC(=O)NC[C@H]1CN(c2ccc(-c3ccc(CNC(=O)C4CNCCN4)cc3)c(F)c2)C(=O)O1 (mixture of isomers)")
2
>>> meas_value("CC(=O)NC[C@H]1CN(c2ccc(-c3ccc(CNS(=O)(=O)c4ccc(N5CCOCC5)nc4)cc3)c(F)c2)C(=O)O1")
128

Req: Endpoint output: MIC of CC(=O)NC[C@H]1CN(c2ccc(-c3ccc(CNC(=O)c4ccncc4)cc3)c(F)c2)C(=O)O1 . Value?
Resp: 2

Req: Any idea what MIC was measured for CC(=O)NC[C@H]1CN(c2ccc(-c3ccc(CNCc4ccncc4)c(F)c3F)c(F)c2)C(=O)O1 ?
Resp: 2

Req: Request the reported MIC associated with CC(=O)NC[C@H]1CN(c2ccc(-c3ccc([C@H](O)CN4CCN(C=O)CC4)cc3)c(F)c2)C(=O)O1
Resp: 0.5

Req: Name the reported MIC value associated with the compound CC(=O)NC[C@H]1CN(c2ccc(-c3ccc(C[S+]([O-])c4cnn[nH]4)cc3)c(F)c2)C(=O)O1 (some centres unmarked)
Resp: 2

Req: Return reported MIC; argument: CC(=O)NC[C@H]1CN(c2ccc(-c3ccc(CNCC4CC4)cc3)c(F)c2)C(=O)O1
Resp: 4

Req: What MIC value was documented for this compound, CC(=O)NC[C@H]1CN(c2ccc(-c3ccc(CNS(=O)(=O)c4cn(C)cn4)cc3)c(F)c2)C(=O)O1 ?
Resp: 2

Req: Recorded MIC for CC(=O)NC[C@H]1CN(c2ccc(-c3ccc(CNCC(=O)N4CCNCC4)cc3)c(F)c2)C(=O)O1 , please?
Resp: 4

Req: Consider the compound CC(=O)NC[C@H]1CN(c2ccc(-c3ccc(CNCc4nn(-c5ccccc5)nc4C)cc3)c(F)c2)C(=O)O1 and give its measured MIC.
Resp: 4

Req: Find the recorded MIC belonging to CC(=O)NC[C@H]1CN(c2ccc(-c3ccc(CNCc4ccc(Cl)cc4)cc3)c(F)c2)C(=O)O1 and report it.
Resp: 2

----------
test protocol: Long-term rat safety study
Type: in vivo
measurement context: male, rat, in vivo, 200 mg/kg
reported property: AUC(0-t)

Req: Fill blank: measured AUC(0-t) of the compound CC(=O)NC[C@H]1CN(c2ccc(-c3ccc(CNCc4cnn[nH]4)cc3)c(F)c2)C(=O)O1 is ____.
Resp: 102 µg·h/mL

----------
Catalogue of compounds with associated log10 MIC
Tested on: S. aureus
test protocol: Minimum inhibitory concentrations (MICs) for S. aureus of exemplary compounds (Table 2)
Format: cell-based
measurement context: Staphylococcus aureus, read-out: MICs
Plainly stated, the numbers are log10 of MIC given in µg/mL.

Example cases with answers are listed next.
>>> meas_value("CC(=O)NC[C@H]1CN(c2cc(F)c(-c3ccc(Cn4cc(CO)nn4)cc3)c(F)c2)C(=O)O1 [Compound 1018]")
0.00
>>> meas_value("COc1cccc(CNc2nc(Cc3ccc(-c4ccc(N5C[C@H](CNC(C)=O)OC5=O)cc4F)cc3)cs2)c1 [Compound 1021]")
0.00
>>> meas_value("CC(=O)NC[C@H]1CN(c2ccc(-c3ccc(CN4CC(C#N)C4)cc3)c(F)c2)C(=O)O1 [Compound 1022]")
-0.60
>>> meas_value("CC(=O)NC[C@H]1CN(c2cc(F)c(-c3ccc(Cn4cc(CN(C)C)nn4)cc3)c(F)c2)C(=O)O1 [Compound 1019]")
0.30
>>> meas_value("CC(=O)NC[C@H]1CN(c2ccc(-c3ccc(Cc4c[nH]cn4)cc3)c(F)c2)C(=O)O1 [Compound 1086]")
-0.30

Req: Could you tell me which log10 MIC is on file for CC(=O)NC[C@H]1CN(c2ccc(-c3ccc(CNCc4cncnc4)cc3)c(F)c2)C(=O)O1 [Compound 4203] ?
Resp: 0.00

Req: Which measured log10 MIC value corresponds to CC(=O)NC[C@H]1CN(c2ccc(-c3ccc(Cc4csc(NCC5CCCO5)n4)cc3)c(F)c2)C(=O)O1 (some centres unmarked) [Compound 1020] ?
Resp: 0.00

Req: # lookup: log10 MIC of CC(=O)NC[C@H]1CN(c2ccc(-c3ccc(Cc4nc(=O)o[nH]4)cc3)c(F)c2)C(=O)O1 [Compound 1016]
Resp: 0.60
